assay_system: HLA-B*35:01
assay_overview: IEDB peptide-MHC binding, purified MHC/competitive/fluorescence; filed as Kd, often an IC50 or EC50 that approximates it; bounds were set here for any values at or beyond the usual limits of such assays
experimental_context: source organism: Salmonella enterica subsp. enterica serovar Typhi
pKd: −log10 of the molar value.
reported_property: pKd

macromolecule_sequence=ISANANFSY assay_system=HLA-B*35:01 reported_property=pKd result_value=7.61

---

assay_system: HLA-B*27:05
assay_overview: IEDB peptide-MHC binding, purified MHC/competitive/fluorescence; filed as Kd, often an IC50 or EC50 that approximates it; bounds were set here for any values at or beyond the usual limits of such assays
experimental_context: source organism: Mycobacterium tuberculosis H37Rv
reported_property: Kd (nM)

macromolecule_sequence=KRIGASLAH reported_property=Kd result_value=171

---

assay_system: HLA-B*08:03
assay_overview: IEDB peptide-MHC binding, purified MHC/competitive/fluorescence; filed as Kd, often an IC50 or EC50 that approximates it; bounds were set here for any values at or beyond the usual limits of such assays
experimental_context: source organism: Pleistophora sp. LS
pKd: −log10 of the molar value.
reported_property: pKd

macromolecule_sequence=VELQIGWTV reported_property=pKd result_value="≤ 4.70"

---

assay_system: HLA-A*30:01
assay_overview: IEDB peptide-MHC binding, purified MHC/competitive/radioactivity; filed as Kd, often an IC50 or EC50 that approximates it; bounds were set here for any values at or beyond the usual limits of such assays
experimental_context: source organism: Dengue virus 4 Philippines/H241/1956
reported_property: Kd (nM)

macromolecule_sequence=ITVSGLYPLA reported_property=Kd result_value=462
macromolecule_sequence=TFIRSTMPLV reported_property=Kd result_value=257
macromolecule_sequence=LTEIASLPTY reported_property=Kd result_value=9340

---

assay_system: HLA-A*03:01
assay_overview: IEDB peptide-MHC binding, purified MHC/direct/fluorescence; filed as Kd, often an IC50 or EC50 that approximates it; bounds were set here for any values at or beyond the usual limits of such assays
experimental_context: source organism: Giardia lamblia ATCC 50803
Here, each record is paired with measured Kd data.
reported_property: Kd (µM)

macromolecule_sequence=DYIYLPLLK reported_property=Kd modifier== result_value=2.22
macromolecule_sequence=MHDPHSIPL reported_property=Kd modifier=≥ result_value=20

---

assay_system: HLA-B*54:01
assay_overview: IEDB peptide-MHC binding, purified MHC/competitive/radioactivity; filed as Kd, often an IC50 or EC50 that approximates it; bounds were set here for any values at or beyond the usual limits of such assays
experimental_context: source organism: Mammarenavirus guanaritoense
pKd: −log10 of the molar value.
reported_property: pKd

macromolecule_sequence=NPLVITTSV reported_property=pKd result_value=7.10

---

assay_system: HLA-A*03:01
assay_overview: IEDB peptide-MHC binding, purified MHC/direct/fluorescence; filed as Kd, often an IC50 or EC50 that approximates it; bounds were set here for any values at or beyond the usual limits of such assays
experimental_context: source organism: Salmonella enterica
reported_property: Kd (nM)

macromolecule_sequence=RTAKVRAFH result_units=nM result_value=242

---

assay_system: HLA-A*02:16
assay_overview: IEDB peptide-MHC binding, purified MHC/direct/fluorescence; filed as Kd, often an IC50 or EC50 that approximates it; bounds were set here for any values at or beyond the usual limits of such assays
experimental_context: source organism: Vibrio parahaemolyticus AQ3810
pKd: −log10 of the molar value.
reported_property: pKd

macromolecule_sequence=RLDKPLWLH reported_property=pKd result_value="≤ 4.70"

---

assay_system: HLA-A*03:01
assay_overview: IEDB peptide-MHC binding, purified MHC/direct/fluorescence; filed as Kd, often an IC50 or EC50 that approximates it; bounds were set here for any values at or beyond the usual limits of such assays
experimental_context: source organism: Influenza A virus (A/chicken/Thailand/LV1NF/2004(H5N1))
reported_property: Kd

macromolecule_sequence=EMIWDPNGW assay_system=HLA-A*03:01 reported_property=Kd result_value="≥ 20 µM"

---

assay_system: HLA-B*15:01
assay_overview: IEDB peptide-MHC binding, purified MHC/direct/fluorescence; filed as Kd, often an IC50 or EC50 that approximates it; bounds were set here for any values at or beyond the usual limits of such assays
experimental_context: source organism: Marburg virus - Musoke, Kenya, 1980
reported_property: Kd (nM)

macromolecule_sequence=ALFHKVQSY result_value=20.5

---

assay_system: HLA-A*02:03
assay_overview: IEDB peptide-MHC binding, purified MHC/competitive/radioactivity; filed as Kd, often an IC50 or EC50 that approximates it; bounds were set here for any values at or beyond the usual limits of such assays
experimental_context: source organism: Dengue virus 3 Martinique/1243/1999
Here, each record is paired with measured Kd data.
reported_property: Kd (nM)

macromolecule_sequence=QVMLLVLCAV assay_system=HLA-A*02:03 reported_property=Kd result_units=nM modifier== result_value=604
macromolecule_sequence=VMAVGLVSI assay_system=HLA-A*02:03 reported_property=Kd result_units=nM modifier== result_value=1.11
macromolecule_sequence=LLKTALLIV assay_system=HLA-A*02:03 reported_property=Kd result_units=nM modifier== result_value=10.6
macromolecule_sequence=MIAGVFFTFV assay_system=HLA-A*02:03 reported_property=Kd result_units=nM modifier=≤ result_value=0.1
macromolecule_sequence=IMKDGRKLV assay_system=HLA-A*02:03 reported_property=Kd result_units=nM modifier== result_value=558
macromolecule_sequence=SLAAIANQA assay_system=HLA-A*02:03 reported_property=Kd result_units=nM modifier== result_value=55

---

assay_system: HLA-B*40:01
assay_overview: IEDB peptide-MHC binding, purified MHC/competitive/fluorescence; filed as Kd, often an IC50 or EC50 that approximates it; bounds were set here for any values at or beyond the usual limits of such assays
experimental_context: source organism: Pleistophora sp. LS
pKd: −log10 of the molar value.
reported_property: pKd

macromolecule_sequence=VELQIGWTV assay_system=HLA-B*40:01 reported_property=pKd result_value=7.40

---

assay_system: HLA-B*18:01
assay_overview: IEDB peptide-MHC binding, purified MHC/direct/fluorescence; filed as Kd, often an IC50 or EC50 that approximates it; bounds were set here for any values at or beyond the usual limits of such assays
experimental_context: source organism: West Nile virus
Here, each record is paired with measured Kd data.
reported_property: Kd (µM)

macromolecule_sequence=GHGTVVLEL reported_property=Kd result_units=µM modifier=≥ result_value=20
macromolecule_sequence=TEGEGRVIL reported_property=Kd result_units=µM modifier== result_value=1.01
macromolecule_sequence=NEVEVITKL reported_property=Kd result_units=µM modifier== result_value=0.0063
macromolecule_sequence=KCRVKMEKL reported_property=Kd result_units=µM modifier=≥ result_value=20
macromolecule_sequence=REDIWCGSL reported_property=Kd result_units=µM modifier== result_value=7.08

---

assay_system: HLA-A*31:01
assay_overview: IEDB peptide-MHC binding, purified MHC/direct/fluorescence; filed as Kd, often an IC50 or EC50 that approximates it; bounds were set here for any values at or beyond the usual limits of such assays
experimental_context: source organism: Influenza A virus (A/chicken/Thailand/LV1NF/2004(H5N1))
reported_property: Kd

macromolecule_sequence=EMIWDPNGW assay_system=HLA-A*31:01 result_value="≥ 20 µM"

---

assay_system: HLA-B*83:01
assay_overview: IEDB peptide-MHC binding, purified MHC/competitive/fluorescence; filed as Kd, often an IC50 or EC50 that approximates it; bounds were set here for any values at or beyond the usual limits of such assays
experimental_context: source organism: Salmonella enterica subsp. enterica serovar Typhi
pKd: −log10 of the molar value.
reported_property: pKd

macromolecule_sequence=KQLELFWVI result_value="≤ 5.30"

---

assay_system: HLA-A*24:03
assay_overview: IEDB peptide-MHC binding, purified MHC/competitive/fluorescence; filed as Kd, often an IC50 or EC50 that approximates it; bounds were set here for any values at or beyond the usual limits of such assays
experimental_context: source organism: Burkholderia orbicola
pKd: −log10 of the molar value.
reported_property: pKd

macromolecule_sequence=RIEQLYPFA result_value="≤ 4.70"

---

assay_system: HLA-B*27:05
assay_overview: IEDB peptide-MHC binding, purified MHC/direct/fluorescence; filed as Kd, often an IC50 or EC50 that approximates it; bounds were set here for any values at or beyond the usual limits of such assays
experimental_context: source organism: Influenza A virus (A/chicken/Thailand/LV1NF/2004(H5N1))
pKd: −log10 of the molar value.
reported_property: pKd

macromolecule_sequence=EMIWDPNGW result_value="≤ 4.70"

---

Here, each record is paired with measured Kd data.
assay_system: HLA-A*24:03
assay_overview: IEDB peptide-MHC binding, purified MHC/direct/fluorescence; filed as Kd, often an IC50 or EC50 that approximates it; bounds were set here for any values at or beyond the usual limits of such assays
experimental_context: source organism: Zaire ebolavirus
reported_property: Kd (nM)

macromolecule_sequence=SWHHTSDDF assay_system=HLA-A*24:03 result_units=nM modifier== result_value=18.7
macromolecule_sequence=KRLQILGYL assay_system=HLA-A*24:03 result_units=nM modifier=≥ result_value=20000
